Test: Tigecycline plasma PK after IV bolus in anesthetized rats
Format: in vivo
Details: female, Sprague-Dawley, rat, IV bolus 0.64 mg/kg, PBS (RA851), 20 min
MEASURED_PARAMETER: concentration at 20 min (ng/mL)
Hi! Could you send only the number? It should be in ng/mL, unit omitted.

According to the records, this compound CN(C)c1cc(NC(=O)CNC(C)(C)C)c(O)c2c1C[C@H]1C[C@H]3[C@H](N(C)C)C(O)=C(C(N)=O)C(=O)[C@@]3(O)C(O)=C1C2=O [Tigecycline] displays concentration at 20 min of 447

----------
Assay: Tigecycline plasma PK and % F after PO enteric-coated capsule in dogs
Format: in vivo, Beagle dogs
Conditions: female, beagle, dog, plasma, po, 15 mg, Tigecycline Plasma Concentration, 15 min; PO 15 mg unformulated enteric-coated capsule, SC424; individual dogs
Protocol: Adult beagle dogs weighing approximately 9 to 15 kg were used in the study. […] Room temperature was set to be maintained between approximately 20±5° C. Relative humidity was monitored but not controlled. […] The unknown concentration in dog plasma samples was determined by interpolation of the peak area ratios of analyte:internal standard versus the ratio of their nominal concentrations into the regression line obtained from calibration standards spiked in pooled dog plasma. […]
MEASURED_PARAMETER: concentration at 15 min (ng/mL)
Hi! Could you send only the number? It should be in ng/mL, unit omitted.

According to the records, this compound `CN(C)c1cc(NC(=O)CNC(C)(C)C)c(O)c2c1C[C@H]1C[C@H]3[C@H](N(C)C)C(O)=C(C(N)=O)C(=O)[C@@]3(O)C(O)=C1C2=O` displays concentration at 15 min of 0
